Molecular target: human glucagon receptor (Homo sapiens)
Construct: expressed in transfected cells; host or cells: BHK (baby hamster kidney) cells, membrane preparation
Sequence (P47871 26-477): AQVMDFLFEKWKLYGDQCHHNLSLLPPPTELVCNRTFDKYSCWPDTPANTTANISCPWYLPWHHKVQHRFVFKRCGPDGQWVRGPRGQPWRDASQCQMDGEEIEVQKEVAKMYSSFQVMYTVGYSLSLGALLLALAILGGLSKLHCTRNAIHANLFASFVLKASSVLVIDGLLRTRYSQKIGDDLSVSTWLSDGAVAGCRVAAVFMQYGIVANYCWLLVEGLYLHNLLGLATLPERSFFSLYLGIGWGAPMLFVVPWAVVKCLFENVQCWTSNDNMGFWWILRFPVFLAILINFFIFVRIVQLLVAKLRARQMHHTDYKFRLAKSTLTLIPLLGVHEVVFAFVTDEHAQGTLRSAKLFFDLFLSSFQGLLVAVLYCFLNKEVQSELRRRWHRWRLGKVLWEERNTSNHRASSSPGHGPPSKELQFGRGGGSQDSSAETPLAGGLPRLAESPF
Experiment: Glucagon Binding Assay (II)
Settings: membranes of BHK cells transfected with human glucagon receptor, 125I-glucagon, SPA; read-out: Glu Bd Assay (II) IC50
Just a reminder that ties go to criterion not met: only IC50 strictly below 30 nM counts as criterion met.

Reference set, count: 6
CC(C)(C)c1cccc(NC(=O)N(Cc2ccc(C(=O)NC[C@@H](O)C(=O)O)cc2)c2ccc(C3CCCCC3)cc2)c1 [Example 38]: criterion not met
CS(=O)(=O)c1cc(NC(=O)N(Cc2ccc(C(=O)NC[C@@H](O)C(=O)O)cc2)c2ccc(C3=CCCCC3)cc2)ccc1OC(F)(F)F [Example 25]: criterion met
O=C(NC[C@@H](O)C(=O)O)c1ccc(CN(C(=O)Cc2cccc(OC(F)(F)F)c2)c2ccc(C3CCCCC3)cc2)cc1 [Example 64]: criterion not met
O=C(NC[C@@H](O)C(=O)O)c1ccc(CN(C(=O)Cc2cc(F)cc(C(F)(F)F)c2)c2ccc(C3CCCCC3)cc2)cc1 [Example 65]: criterion not met
CC(C)c1ccc(NC(=O)N(Cc2ccc(C(=O)NC[C@@H](O)C(=O)O)cc2)c2ccc(C3CCCCC3)cc2)cc1 [Example 51]: criterion not met
CC(C)(C)C1CCC(N(Cc2ccc(C(=O)NC[C@@H](O)C(=O)O)cc2)C(=O)Nc2ccc(Cl)c(Cl)c2)CC1 (stereo partly shown) [Example 41]: criterion not met

Is the reported IC50 for O=C(NC[C@@H](O)C(=O)O)c1ccc(CN(C(=O)Nc2cccc(C(F)(F)F)c2)c2ccc(C3CCCCC3)cc2)cc1 [Example 5] strictly below 30 nM?
criterion met

Is the reported IC50 for CC(C)(C)c1ccc(N(Cc2ccc(C(=O)NC[C@@H](O)C(=O)O)cc2)C(=O)Nc2ccc(F)c(F)c2)cc1 [Example 46] strictly below 30 nM?
criterion not met

Is the reported IC50 for N#Cc1cc(NC(=O)N(Cc2ccc(C(=O)NC[C@@H](O)C(=O)O)cc2)c2ccc(C3CCCCC3)cc2)cc(C(F)(F)F)c1 [Example 8] strictly below 30 nM?
criterion met

Is the reported IC50 for CC(C)(C)C1CCC(N(Cc2ccc(C(=O)NC[C@@H](O)C(=O)O)cc2)C(=O)Cc2ccc(OC(F)(F)F)cc2)CC1 (stereo partly shown) [Example 56] strictly below 30 nM?
criterion not met

Is the reported IC50 for O=C(NC[C@@H](O)C(=O)O)c1ccc(CN(C(=O)Nc2cc(Br)cc(C(F)(F)F)c2)c2ccc(C3=CCCCC3)cc2)cc1 [Example 9] strictly below 30 nM?
criterion met

Is the reported IC50 for O=C(NC[C@@H](O)C(=O)O)c1ccc(CN(C(=O)Nc2ccc(OC(F)(F)F)cc2)c2ccc(C3CCCCC3)cc2)cc1 [Example 4] strictly below 30 nM?
criterion met

Is the reported IC50 for O=C(NC[C@@H](O)C(=O)O)c1ccc(CN(C(=O)Nc2ccc(SC(F)(F)F)cc2)c2ccc(C3CCCCC3)cc2)cc1 [Example 24] strictly below 30 nM?
criterion met
